I'd be grateful if you could share measured TGI for these entries.
- Test system: OVCAR-8 ovarian
- measurement-notes: NCI tumour cell line growth inhibition, 48 h

Problem: Looking for the measured TGI of COc1ccc(C2S/C(=C\c3cccc([N+](=O)[O-])c3)C(=O)N2NC(=O)Cc2ccccc2)cc1 (stereo not given) , can you help?
Result: > 100 µM

Problem: Looking for the measured TGI of COC(=O)c1c/c(=N\NC(=O)CC(=O)Nc2ccc(C)cc2)c2ccccc2o1 , can you help?
Result: > 100 µM

Problem: Looking for the measured TGI of COC1(C)Cc2c(c(C)c(O)c3c2C(=O)C=C(Cl)C3=O)O1 (stereo not given) , can you help?
Result: > 73.6 µM

Problem: Looking for the measured TGI of Cc1cc(Cl)ccc1Nc1nc(C(F)(F)F)ccc1C(=O)N/N=C/c1ccc(F)cc1 , can you help?
Result: 6.33 µM

Problem: Looking for the measured TGI of O=C(NC1CCN(Cc2ccccc2)CC1)c1ccccc1I , can you help?
Result: > 100 µM

Problem: Looking for the measured TGI of Clc1cccc(Cl)c1C1SCc2nc3ncccc3n21 (stereo not given) , can you help?
Result: > 100 µM

Problem: Looking for the measured TGI of Cc1cc2nc3c(C#N)c(-c4ccccc4)cc(Nc4cccc(C(F)(F)F)c4)n3c2cc1C , can you help?
Result: > 100 µM

Problem: Looking for the measured TGI of c1ccc(-c2cc(-c3cc(-c4ccccc4)no3)on2)cc1 , can you help?
Result: 30.2 µM

Problem: Looking for the measured TGI of COc1cc2c3c(n(CCCN4CCOCC4)c(=O)c2cc1OC)-c1cc2c(cc1C3=O)OCO2 , can you help?
Result: > 100 µM

Problem: Looking for the measured TGI of Cc1cccc2c(=O)c3c(sc12)c(NCCN)nc1ccccc13 , can you help?
Result: 1.98 µM

----------
- Tested on: DU-145 prostate
- measurement-notes: NCI tumour cell line growth inhibition, 48 h
I'd be grateful if you could share measured GI50 for these entries.

Problem: Looking for the measured GI50 of COc1ccc2oc(-c3ccc(Cl)cc3)c(N3CCN(C)CC3)c2c1 , can you help?
Result: 1.88 µM

Problem: Looking for the measured GI50 of O=C(Nc1cccc(-n2cc(-c3ccncc3)c(-c3ccc(O)c(Cl)c3)n2)c1)Nc1ccc(Cl)c(C(F)(F)F)c1 , can you help?
Result: 2.54 µM

Problem: Looking for the measured GI50 of Cc1cc(Cl)ccc1Nc1nc(C(F)(F)F)ccc1C(=O)N/N=C/c1ccc(F)cc1 , can you help?
Result: 3.46 µM

Problem: Looking for the measured GI50 of N=C(N)c1ccc(-c2ccc(-c3cc(Cl)cc(Cl)c3)s2)nc1 , can you help?
Result: 1.88 µM

Problem: Looking for the measured GI50 of O=C(Nc1cccc2ccccc12)c1cc2ccccc2cc1O , can you help?
Result: 3.84 µM

Problem: Looking for the measured GI50 of COc1cc2c(/C=C3/C(=O)Nc4c3ccc3ccccc43)c(Cl)[nH]c2cc1C , can you help?
Result: 0.165 µM

Problem: Looking for the measured GI50 of O=C1C=CC(=O)N1CCCCCCCCCCN1C(=O)C=CC1=O , can you help?
Result: 15.8 µM

Problem: Looking for the measured GI50 of O=C(CN/C=C\C(=O)c1cc(Cl)ccc1Cl)c1ccccc1 , can you help?
Result: 33.4 µM

Problem: Looking for the measured GI50 of COc1ccc(/C=C2\CCCC3=C2N=C2SC=NN2C3c2ccc(OC)c(OC)c2)cc1OC (stereo not given) , can you help?
Result: 23 µM

Problem: Looking for the measured GI50 of CCCNNC(=O)c1ccc(CNC(=O)/C=C/c2ccccc2)cc1 , can you help?
Result: 0.218 µM

Problem: Looking for the measured GI50 of COc1ccc(OC)c2c3c(ncc12)-c1cc2c(cc1C3)OCO2 , can you help?
Result: 48.4 µM

Problem: Looking for the measured GI50 of CSc1ccc2c(c1)C(=O)c1c-2n(CCCN=[N+]=[N-])c(=O)c2cc([N+](=O)[O-])ccc12 , can you help?
Result: 1.73 µM

Problem: Looking for the measured GI50 of Cc1ccc(S(=O)(=O)C2=C3C(=C(c4ccccc4)c4ccccc43)CN(S(=O)(=O)c3ccc(C)cc3)C2)cc1 , can you help?
Result: 11.8 µM

Problem: Looking for the measured GI50 of O=C(Nc1cc(Cl)cc(Cl)c1)c1ccc(NC2=C(Cl)C(=O)N(Cc3ccccc3)C2=O)cc1 , can you help?
Result: 0.96 µM

Problem: Looking for the measured GI50 of CC(=O)/C=C/c1ccc(N(C)Cc2ccc(C(C)(C)C)cc2)cc1 , can you help?
Result: 147 µM

----------
I'd be grateful if you could share measured GI50 for these entries.
- Test system: T-47D breast
- measurement-notes: NCI tumour cell line growth inhibition, 48 h

Problem: Param readout= GI50; system= T-47D breast; entry= CCNCCNc1cc(C2CCCC2)c(C#N)c2nc3ccccc3n12 ; returns value.
Result: 2580 nM

Problem: Param readout= GI50; system= T-47D breast; entry= N=C(N)c1ccc(-c2ccc(-c3ccco3)o2)cc1F ; returns value.
Result: 2050 nM

Problem: Param readout= GI50; system= T-47D breast; entry= COc1ccc2cc(C(=O)/C=C/c3ccccc3OC)ccc2c1 ; returns value.
Result: 2580 nM

Problem: Param readout= GI50; system= T-47D breast; entry= CCOC(=O)C1=C(N)Oc2cc(OC)ccc2C1c1ccc(F)c(F)c1 (centres undefined) ; returns value.
Result: 1720 nM

Problem: Param readout= GI50; system= T-47D breast; entry= NNc1nc(-c2ccccn2)nc2sc3c(c12)CCCCCC3 ; returns value.
Result: 5010 nM

Problem: Param readout= GI50; system= T-47D breast; entry= COc1ccc2c(c1)c(=O)oc1cc(OC/C(=N\O)c3ccc(F)cc3)ccc12 ; returns value.
Result: 28400 nM

Problem: Param readout= GI50; system= T-47D breast; entry= CCN(CC)CCCC(C)Nc1ccnc2cc(Cl)c(SCc3ccccc3)cc12 (centres undefined) ; returns value.
Result: 1980 nM

Problem: Param readout= GI50; system= T-47D breast; entry= O=C(Nc1cc(Cl)cc(Cl)c1)c1ccc(NC2=C(Cl)C(=O)N(Cc3ccccc3)C2=O)cc1 ; returns value.
Result: 30900 nM

Problem: Param readout= GI50; system= T-47D breast; entry= CCOC(=O)c1c2c(n3cccc(F)c13)C(=O)c1ncccc1C2=O ; returns value.
Result: 3530 nM

----------
- Test system: UO-31 renal
- measurement-notes: NCI tumour cell line growth inhibition, 48 h; in the data active = GI50 below about 0.43 µM; inactive = the rest
A correct response names exactly one class from T for active, F for inactive

Problem: Please indicate how the test categorized COc1ccc(/C=C/C(=O)c2ccc(NC(=O)CSc3nnc(-c4cc(OC)c(OC)c(OC)c4)o3)cc2)cc1 .
Result: F

Problem: Please indicate how the test categorized C(#Cc1ccccc1C#Cc1ccccn1)c1ccc(OCCCCCCOc2ccc(C#Cc3ccccc3C#Cc3ccccn3)cc2)cc1 .
Result: F

Problem: Please indicate how the test categorized Cc1ccc(S(=O)(=O)N2C/C(=C\c3cc(F)cc(F)c3)C(=O)/C(=C/c3cc(F)cc(F)c3)C2)cc1 .
Result: F

Problem: Please indicate how the test categorized COc1ccc2c(c1)CC[C@@H]1[C@@H]2CC[C@]2(C)c3c(cc(C(=O)c4ccccc4)c4sccc34)C[C@@H]12 .
Result: F

Problem: Please indicate how the test categorized CN(C)CCOc1cccc(NC2=C(Cl)C(=O)C(Nc3cccc(OCCN(C)C)c3)=C(Cl)C2=O)c1 .
Result: F

Problem: Please indicate how the test categorized CCN1CCN(Cc2ccc3cc(C(=O)Nc4cc(NC(=O)c5ccc6c(c5)OCCO6)ccc4F)ccc3n2)CC1 .
Result: T

Problem: Please indicate how the test categorized O=C(Nc1cccc2ccccc12)c1cc2ccccc2cc1O .
Result: F

Problem: Please indicate how the test categorized C#CCOc1c(OC)cc(C(=O)/C(C)=C/c2cccc(N=[N+]=[N-])c2)cc1OC .
Result: F

Problem: Please indicate how the test categorized Cc1cccc2c(=O)c3c(sc12)c(NCCN)nc1ccccc13 .
Result: F

----------
- System: LOX IMVI melanoma
- measurement-notes: NCI tumour cell line growth inhibition, 48 h
value-type: TGI (µM)
The answer is to be given in µM; state only the numeric part.

Problem: Looking for the measured TGI of COc1ccc(OC)c2c3c(ncc12)-c1cc2c(cc1C3)OCO2 , can you help?
Result: 1.85

Problem: Looking for the measured TGI of CCN1CCN(Cc2ccc3cc(C(=O)Nc4cc(NC(=O)c5ccc6c(c5)OCCO6)ccc4F)ccc3n2)CC1 , can you help?
Result: 1.43

Problem: Looking for the measured TGI of Cc1cccc2c(=O)c3c(sc12)c(NCCN)nc1ccccc13 , can you help?
Result: 1.48

Problem: Looking for the measured TGI of COc1cc([C@@H]2c3cc4c(cc3[C@@H](NC(=O)c3ccc([N+](=O)[O-])cc3)C3COC(=O)[C@@H]32)OCO4)cc(OC)c1O (some centres undefined) , can you help?
Result: 5.86
